- METHOD_DESCRIPTION: Thermodynamic stability constants of lanthanum complexes by potentiometric titration
- CONDITIONS_USED: I=0.1 M KCl, 25° C.
MEASURE_NAME: log KLaL
Response field accepts a number only; no unit should be typed.

// field: log KLaL; key: O=C(O)c1cccc(CN2CCOCCOCCN(Cc3cccc(C(=O)O)n3)CCOCCOCC2)n1 [H2macropa] ; value = 14.99

// field: log KLaL; key: O=C(O)CN1CCN(CC(=O)O)CCN(CC(=O)O)CCN(CC(=O)O)CC1 [DOTA] ; value = 21.7

// field: log KLaL; key: O=C(O)CN(CCN(CC(=O)O)CC(=O)O)CC(=O)O [EDTA] ; value = 15.46

// field: log KLaL; key: O=C(O)CN(CCN(CC(=O)O)CC(=O)O)CCN(CC(=O)O)CC(=O)O [DTPA] ; value = 19.48

// field: log KLaL; key: O=C(O)c1cccc(CN2CCOCCOCCN(Cc3cccc(C(=O)O)n3)CCOc3ccccc3OCC2)n1 [H2BZmacropa] ; value = 13.98

###

- METHOD_DESCRIPTION: Thermodynamic stability constants of barium complexes by potentiometric titration
- CONDITIONS_USED: [M]tot = 10^−6 M, [L]tot = 10^−5 M, pH 7.4, 25° C., I = 0.1M KCl
MEASURE_NAME: pBa (−log [M]free)
Response field accepts a number only; no unit should be typed.

// field: pBa (−log [M]free); key: "O=C(O)CN(CCN(CC(=O)O)CC(=O)O)CC(=O)O" ; value = 6.28

// field: pBa (−log [M]free); key: "O=C(O)c1cccc(CN2CCOCCOCCN(Cc3cccc(C(=O)O)n3)CCOCCOCC2)n1" ; value = 11.69

// field: pBa (−log [M]free); key: "O=C(O)CN1CCN(CC(=O)O)CCN(CC(=O)O)CCN(CC(=O)O)CC1" ; value = 6.76

// field: pBa (−log [M]free); key: "O=C(O)c1cccc(CN2CCOCCOCCN(Cc3cccc(C(=O)O)n3)CCOc3ccccc3OCC2)n1" ; value = 9.87

// field: pBa (−log [M]free); key: "O=C(O)CN(CCN(CC(=O)O)CC(=O)O)CCN(CC(=O)O)CC(=O)O" ; value = 6.15

###

Assignment: determine reported log KBaL for the given molecules.
- METHOD_DESCRIPTION: Thermodynamic stability constants of barium complexes by potentiometric titration
- CONDITIONS_USED: I=0.1 M KCl, 25° C.
Response field accepts a number only; no unit should be typed.

// field: log KBaL; key: "O=C(O)CN1CCN(CC(=O)O)CCN(CC(=O)O)CCN(CC(=O)O)CC1" ; value = 11.75

// field: log KBaL; key: "O=C(O)c1cccc(CN2CCOCCOCCN(Cc3cccc(C(=O)O)n3)CCOCCOCC2)n1" ; value = 11.11

// field: log KBaL; key: "O=C(O)CN(CCN(CC(=O)O)CC(=O)O)CCN(CC(=O)O)CC(=O)O" ; value = 8.78

// field: log KBaL; key: "O=C(O)c1cccc(CN2CCOCCOCCN(Cc3cccc(C(=O)O)n3)CCOc3ccccc3OCC2)n1" ; value = 9.09

// field: log KBaL; key: "O=C(O)CN(CCN(CC(=O)O)CC(=O)O)CC(=O)O" ; value = 7.80
